# Species: Rattus norvegicus
# test.summary: Open TG-GATES - Regimen: Single
# Assay type: toxicity, organism-based, Sprague-Dawley
# Parameters: regimen Single, gender Male, age 6 weeks
# measurement.conditions: in vivo, po, 0 mg/kg, 24 h, tissue Kidney, route gavage, dose level Control
I'd be grateful if you could share measured KIDNEY_L for these entries.

The cases that follow already have their KIDNEY_L on record.
Nc1nc(N)c2nc(-c3ccccc3)c(N)nc2n1: 1 g
C[C@]12CCC(=O)C=C1CC[C@@H]1[C@@H]2CC[C@@]2(C)[C@H]1CC[C@]2(C)O: 0.9 g

Respectfully, I request KIDNEY_L for each entry included below.
1. CCSCC[C@H](N)C(=O)O
2. CCc1oc2ccccc2c1C(=O)c1cc(I)c(O)c(I)c1
3. CC(C)(S)[C@@H](N)C(=O)O

Found:
1 g
1 g
0.9 g

---

# Species: Rattus norvegicus
# test.summary: Open TG-GATES - Regimen: Daily Repeat
# Assay type: toxicity, organism-based, Sprague-Dawley
# Parameters: regimen Daily Repeat, gender Male, age 6 weeks
# measurement.conditions: in vivo, po, 0 mg/kg, […], tissue Plasma, route gavage, dose level Control, time 7 day
observed.property: K (meq/L)
One number for each entry, in meq/L.

CN1C(=O)OC(C)(C)C1=O [TRIMETHADIONE]: 4.1
CC(=N)S [THIOACETAMIDE]: 5.2
C[C@](N)(Cc1ccc(O)c(O)c1)C(=O)O [METHYLDOPA]: 4.2
CCN1CCCC1CNC(=O)c1cc(S(N)(=O)=O)ccc1OC (stereo unspecified) [SULPIRIDE]: 4.5
CCSCC[C@H](N)C(=O)O [ETHIONINE]: 3.8

For the next question, use this molecule.
Lookup: Give its K value. Item: O=C(O)c1cccnc1 [NIACIN]
Found: 4.2

---

I'd be grateful if you could share measured Mono for these entries.
# Species on record: Rattus norvegicus
# test.summary: Open TG-GATES - Regimen: Daily Repeat
# Assay type: toxicity, organism-based, Sprague-Dawley
# Design: regimen Daily Repeat, gender Male, age 6 weeks
# measurement.conditions: in vivo, po, 0 mg/kg, […], tissue Blood, route gavage, dose level Control, time 7 day
Please answer using a numeric value trailed by its unit.

CC(=O)Oc1cc(C(C)C)c(OCCN(C)C)cc1C: 2%
C[C@](N)(Cc1ccc(O)c(O)c1)C(=O)O: 3%
CC(C)(S)[C@@H](N)C(=O)O: 2.8%

Respectfully, I request Mono for each entry included below.
1. Oc1ncnc2[nH]ncc12
2. O=C(N[C@H](CO)[C@H](O)c1ccc([N+](=O)[O-])cc1)C(Cl)Cl
3. CCN1CCCC1CNC(=O)c1cc(S(N)(=O)=O)ccc1OC (stereo not given) [SULPIRIDE]
4. C[C@]12CCC(=O)C=C1CC[C@@H]1[C@@H]2CC[C@@]2(C)[C@H]1CC[C@]2(C)O

Found:
["4.8%", "2.6%", "2.4%", "2.2%"]

Respectfully, I request Mono for each entry included below.
1. CN1C(=O)OC(C)(C)C1=O
2. Nc1nc(N)c2nc(-c3ccccc3)c(N)nc2n1
3. CCSCC[C@H](N)C(=O)O
4. CCC(C)(C)C(=O)O[C@H]1C[C@@H](C)C=C2C=C[C@H](C)[C@H](CC[C@@H]3C[C@@H](O)CC(=O)O3)[C@H]21
5. CCc1oc2ccccc2c1C(=O)c1cc(I)c(O)c(I)c1
6. CC(C)C(=O)Nc1ccc([N+](=O)[O-])c(C(F)(F)F)c1 [FLUTAMIDE]
7. CC(=N)S [THIOACETAMIDE]
8. O=C(O)c1cccnc1

Found:
["2.4%", "2.6%", "2.8%", "8.8%", "7.2%", "2.4%", "4.4%", "3.2%"]

---

# Species on record: Rattus norvegicus
# test.summary: Open TG-GATES - Regimen: Daily Repeat
# Format: toxicity, organism-based, Sprague-Dawley
# Parameters: regimen Daily Repeat, gender Male, age 6 weeks
# measurement.conditions: in vivo, po, 0 mg/kg, […], tissue Plasma, route gavage, dose level Control, time 28 day
I'd be grateful if you could share measured RALB for these entries.
Give bare numbers, in g/dL.

The cases that follow already have their RALB on record.
CC(=O)Oc1cc(C(C)C)c(OCCN(C)C)cc1C: 3
CCc1oc2ccccc2c1C(=O)c1cc(I)c(O)c(I)c1: 3.7
CCC(C)(C)C(=O)O[C@H]1C[C@@H](C)C=C2C=C[C@H](C)[C@H](CC[C@@H]3C[C@@H](O)CC(=O)O3)[C@H]21: 3.9
O=C(O)c1cccnc1: 3.1
Nc1nc(N)c2nc(-c3ccccc3)c(N)nc2n1: 2.8

Respectfully, I request RALB for each entry included below.
1. O=C(N[C@H](CO)[C@H](O)c1ccc([N+](=O)[O-])cc1)C(Cl)Cl
2. CC(=N)S [THIOACETAMIDE]
3. C[C@](N)(Cc1ccc(O)c(O)c1)C(=O)O
4. CCSCC[C@H](N)C(=O)O
5. C#C[C@]1(O)CC[C@H]2[C@@H]3CCc4cc(O)ccc4[C@H]3CC[C@@]21C
6. Oc1ncnc2[nH]ncc12

Found:
1: 2.7; 2: 4.1; 3: 2.8; 4: 3.4; 5: 2.9; 6: 3.8

---

# Species on record: Rattus norvegicus
# test.summary: Open TG-GATES - Regimen: Single
# Format: toxicity, organism-based, Sprague-Dawley
# Design: regimen Single, gender Male, age 6 weeks
# measurement.conditions: in vivo, po, 0 mg/kg, 24 h, tissue Blood, route gavage, dose level Control
observed.property: MCH (pg)
Answers are plain numbers, in pg.

CC(=O)Oc1cc(C(C)C)c(OCCN(C)C)cc1C [MOXISYLYTE]: 21.5

Respectfully, I request MCH for each entry included below.
1. CC(C)C(=O)Nc1ccc([N+](=O)[O-])c(C(F)(F)F)c1 [FLUTAMIDE]
2. CC(=N)S [THIOACETAMIDE]

Found:
1. 21.8
2. 21.1

Respectfully, I request MCH for each entry included below.
1. CCc1oc2ccccc2c1C(=O)c1cc(I)c(O)c(I)c1 [BENZIODARONE]
2. Nc1nc(N)c2nc(-c3ccccc3)c(N)nc2n1
3. C[C@]12CCC(=O)C=C1CC[C@@H]1[C@@H]2CC[C@@]2(C)[C@H]1CC[C@]2(C)O [METHYLTESTOSTERONE]

Found:
22
21.5
21.7

Respectfully, I request MCH for each entry included below.
1. CCN1CCCC1CNC(=O)c1cc(S(N)(=O)=O)ccc1OC (centres undefined) [SULPIRIDE]
2. Oc1ncnc2[nH]ncc12 [ALLOPURINOL]
3. C#C[C@]1(O)CC[C@H]2[C@@H]3CCc4cc(O)ccc4[C@H]3CC[C@@]21C [ETHINYL ESTRADIOL]
4. O=C(N[C@H](CO)[C@H](O)c1ccc([N+](=O)[O-])cc1)C(Cl)Cl [CHLORAMPHENICOL]
5. CN1C(=O)OC(C)(C)C1=O [TRIMETHADIONE]
6. CCSCC[C@H](N)C(=O)O [ETHIONINE]
7. CC(C)(S)[C@@H](N)C(=O)O [PENICILLAMINE]

Found:
[20.7, 21.8, 21.6, 21.3, 21.8, 21.8, 21.3]

Lookup: Give its MCH value. Item: C[C@](N)(Cc1ccc(O)c(O)c1)C(=O)O [METHYLDOPA]
Found: 22

---

# Species on record: Rattus norvegicus
# test.summary: Open TG-GATES - Regimen: Single
# Type: toxicity, organism-based, Sprague-Dawley
# Design: regimen Single, gender Male, age 6 weeks
# measurement.conditions: in vivo, po, 0 mg/kg, 6 h, tissue Blood, route gavage, dose level Control
observed.property: Neu (%)
One number for each entry, in %.

Respectfully, I request Neu for each entry included below.
1. C[C@](N)(Cc1ccc(O)c(O)c1)C(=O)O [METHYLDOPA]
2. CC(C)(S)[C@@H](N)C(=O)O [PENICILLAMINE]
3. CC(=N)S [THIOACETAMIDE]
4. CCC(C)(C)C(=O)O[C@H]1C[C@@H](C)C=C2C=C[C@H](C)[C@H](CC[C@@H]3C[C@@H](O)CC(=O)O3)[C@H]21 [SIMVASTATIN]
5. CCSCC[C@H](N)C(=O)O [ETHIONINE]

Found:
1: 24.4; 2: 16.2; 3: 12.8; 4: 13; 5: 13.2

Respectfully, I request Neu for each entry included below.
1. C[C@]12CCC(=O)C=C1CC[C@@H]1[C@@H]2CC[C@@]2(C)[C@H]1CC[C@]2(C)O [METHYLTESTOSTERONE]
2. Oc1ncnc2[nH]ncc12 [ALLOPURINOL]
3. CN1C(=O)OC(C)(C)C1=O [TRIMETHADIONE]
4. CC(=O)Oc1cc(C(C)C)c(OCCN(C)C)cc1C [MOXISYLYTE]
5. Nc1nc(N)c2nc(-c3ccccc3)c(N)nc2n1
6. O=C(N[C@H](CO)[C@H](O)c1ccc([N+](=O)[O-])cc1)C(Cl)Cl [CHLORAMPHENICOL]
7. CCN1CCCC1CNC(=O)c1cc(S(N)(=O)=O)ccc1OC (centres undefined) [SULPIRIDE]

Found:
1. 19.4
2. 13.6
3. 19
4. 16.6
5. 19
6. 24.2
7. 16.4

Respectfully, I request Neu for each entry included below.
1. CCc1oc2ccccc2c1C(=O)c1cc(I)c(O)c(I)c1 [BENZIODARONE]
2. CC(C)C(=O)Nc1ccc([N+](=O)[O-])c(C(F)(F)F)c1 [FLUTAMIDE]

Found:
[10.6, 15]

// provenance: ChEMBL document CHEMBL3885861
